// provenance: paper PMC9343874

Experiment: Pharmacokinetic study in rats after oral administration of cinobufacini capsule (UPLC-MS/MS of plasma)
Type: in vivo, rat
Details: male, Sprague-Dawley, in vivo; rat plasma, oral cinobufacini capsule 0.9 g/kg (low), mean ± SD, n = 6; read-out: MRT0-t
MRT last overview

[[record]]
smiles_text = "C[C@]12CC[C@H](O)C[C@H]1CC[C@@H]1[C@@H]2CC[C@]2(C)[C@@H](c3ccc(=O)oc3)[C@@H](O)[C@H]3O[C@]132"
observed_result = "3.95 h"

[[record]]
smiles_text = "C[C@]12CC[C@H](O)C[C@H]1CC[C@@H]1[C@@H]2[C@H](O)C(=O)[C@]2(C)[C@@H](c3ccc(=O)oc3)CC[C@]12O"
observed_result = "1.44 h"

[[record]]
smiles_text = "C[C@]12CC[C@H](O)C[C@H]1CC[C@@H]1[C@@H]2C(=O)[C@@H](O)[C@]2(C)[C@@H](c3ccc(=O)oc3)CC[C@]12O"
observed_result = "2.4 h"

[[record]]
smiles_text = "C[C@]12CC[C@H]3[C@@H](CC[C@]4(O)C[C@@H](O)CC[C@]34C=O)[C@@]1(O)CC[C@@H]2c1ccc(=O)oc1"
observed_result = "3.59 h"

[[record]]
smiles_text = "C[C@]12CC[C@H](O)C[C@H]1CC[C@@H]1[C@@H]2[C@H](O)C[C@]2(C)[C@@H](c3ccc(=O)oc3)CC[C@]12O"
observed_result = "0.41 h"

[[record]]
smiles_text = "C[C@]12CC[C@H](O)C[C@@]1(O)CC[C@@H]1[C@@H]2CC[C@]2(C)[C@@H](c3ccc(=O)oc3)CC[C@]12O"
observed_result = "0.64 h"

[[record]]
smiles_text = "C[C@]12CC[C@H](O)C[C@@]1(O)CC[C@@H]1[C@@H]2CC[C@]2(C)[C@@H](c3ccc(=O)oc3)[C@@H](O)[C@H]3O[C@]132"
observed_result = "2.53 h"


Okay, next one:
Any idea what its MRT last is? The molecule is C[C@]12CC[C@H](O)C[C@H]1CC[C@@H]1[C@@H]2CC[C@]2(C)[C@@H](c3ccc(=O)oc3)CC[C@]12O
2.04 h

---

Below: a set of entries, each annotated with reported Tmax.
Assay: Pharmacokinetic study in rats after oral administration of cinobufacini capsule (UPLC-MS/MS of plasma)
Assay type: in vivo, rat
Details: male, Sprague-Dawley, in vivo; rat plasma, oral cinobufacini capsule 0.9 g/kg (low), mean ± SD, n = 6
The response must be a number in min with no trailing unit.

Check out these entries, answers already filled in.
[[record]]
smiles_text = "C[C@]12CC[C@H](O)C[C@H]1CC[C@@H]1[C@@H]2[C@H](O)C(=O)[C@]2(C)[C@@H](c3ccc(=O)oc3)CC[C@]12O"
metric = "Tmax"
observed_result = 27

[[record]]
smiles_text = "C[C@]12CC[C@H](O)C[C@@]1(O)CC[C@@H]1[C@@H]2CC[C@]2(C)[C@@H](c3ccc(=O)oc3)[C@@H](O)[C@H]3O[C@]132"
metric = "Tmax"
observed_result = 52.2


Now, please, on to the next molecule.
# query: Tmax of entry C[C@]12CC[C@H](O)C[C@H]1CC[C@@H]1[C@@H]2CC[C@]2(C)[C@@H](c3ccc(=O)oc3)CC[C@]12O
15

---

Experiment: Stability of analytes in rat plasma QC samples under storage conditions
Type: physicochemical
Settings: rat plasma, −80°C to room temperature; medium QC level (49.92–50.06 ng/ml), n = 6
Here the recorded Three freeze–thaw cycles, RE is given for each entry.
Please respond with the number in % and leave the unit unwritten.

[[record]]
smiles_text = "C[C@]12CC[C@H](O)C[C@H]1CC[C@@H]1[C@@H]2CC[C@]2(C)[C@@H](c3ccc(=O)oc3)C[C@H]3O[C@]132"
metric = "Three freeze–thaw cycles, RE"
unit_spec = "%"
observed_result = 3.3

[[record]]
smiles_text = "C[C@]12CC[C@H](O)C[C@H]1CC[C@@H]1[C@@H]2[C@H](O)C(=O)[C@]2(C)[C@@H](c3ccc(=O)oc3)CC[C@]12O"
metric = "Three freeze–thaw cycles, RE"
unit_spec = "%"
observed_result = 3.3

[[record]]
smiles_text = "CC(=O)O[C@H]1[C@H]2O[C@]23[C@@H]2CC[C@@H]4C[C@@H](O)CC[C@]4(C)[C@H]2CC[C@]3(C)[C@H]1c1ccc(=O)oc1"
metric = "Three freeze–thaw cycles, RE"
unit_spec = "%"
observed_result = 0.0

[[record]]
smiles_text = "C[C@]12CC[C@H](O)C[C@H]1CC[C@@H]1[C@@H]2C(=O)[C@@H](O)[C@]2(C)[C@@H](c3ccc(=O)oc3)CC[C@]12O"
metric = "Three freeze–thaw cycles, RE"
unit_spec = "%"
observed_result = 13.3

[[record]]
smiles_text = "C[C@]12CC[C@H](O)C[C@@]1(O)CC[C@@H]1[C@@H]2CC[C@]2(C)[C@@H](c3ccc(=O)oc3)CC[C@]12O"
metric = "Three freeze–thaw cycles, RE"
unit_spec = "%"
observed_result = 0.0

[[record]]
smiles_text = "C[C@]12CC[C@H](O)C[C@H]1CC[C@@H]1[C@@H]2CC[C@]2(C)[C@@H](c3ccc(=O)oc3)CC[C@]12O"
metric = "Three freeze–thaw cycles, RE"
unit_spec = "%"
observed_result = "−10.1"


Please examine the following record next.
State the recorded Three freeze–thaw cycles, RE for this entry: C[C@]12CC[C@H](O)C[C@H]1CC[C@@H]1[C@@H]2CC[C@]2(C)[C@@H](c3ccc(=O)oc3)[C@@H](O)[C@H]3O[C@]132
4.9

---

Experiment: Stability of analytes in rat plasma QC samples under storage conditions
Assay type: physicochemical
Conditions: rat plasma, long-term; high QC level (249.58–250.28 ng/ml), n = 6
metric: −80°C for 30 days, RE (%)
Report only the number, with the unit % understood.

Some entries whose results are on file:
[[record]]
compound = "C[C@]12CC[C@H](O)C[C@@]1(O)CC[C@@H]1[C@@H]2CC[C@]2(C)[C@@H](c3ccc(=O)oc3)[C@@H](O)[C@H]3O[C@]132 [DCT, desacetylcinobufotalin]"
observed_result = 8.7

[[record]]
compound = "CC(=O)O[C@H]1C[C@]2(O)[C@@H]3CC[C@@H]4C[C@@H](O)CC[C@]4(C)[C@H]3CC[C@]2(C)[C@H]1c1ccc(=O)oc1 [BL, bufotalin]"
observed_result = 6.0

[[record]]
compound = "C[C@]12CC[C@H](O)C[C@@]1(O)CC[C@@H]1[C@@H]2CC[C@]2(C)[C@@H](c3ccc(=O)oc3)CC[C@]12O [TCG, telocinobufagin]"
observed_result = "−2.1"

[[record]]
compound = "C[C@]12CC[C@H](O)C[C@H]1CC[C@@H]1[C@@H]2CC[C@]2(C)[C@@H](c3ccc(=O)oc3)CC[C@]12O [BF, bufalin]"
observed_result = 1.4


Given C[C@]12CC[C@H](O)C[C@H]1CC[C@@H]1[C@@H]2C(=O)[C@@H](O)[C@]2(C)[C@@H](c3ccc(=O)oc3)CC[C@]12O [PBG, pseudobufarenogin] , state its recorded −80°C for 30 days, RE.
4.7

---

Assay: Pharmacokinetic study in rats after oral administration of cinobufacini capsule (UPLC-MS/MS of plasma)
Format: in vivo, rat
Settings: male, Sprague-Dawley, in vivo; rat plasma, oral cinobufacini capsule 1.8 g/kg (medium), mean ± SD, n = 6; read-out: T1/2z (converted)
metric: half-life (h)
The reply should contain only the number, in h.

[[record]]
compound = "C[C@]12CC[C@H](O)C[C@@]1(O)CC[C@@H]1[C@@H]2CC[C@]2(C)[C@@H](c3ccc(=O)oc3)CC[C@]12O [TCG, telocinobufagin]"
metric = "half-life"
unit_spec = "h"
observed_result = 0.21

[[record]]
compound = "C[C@]12CC[C@H](O)C[C@H]1CC[C@@H]1[C@@H]2C(=O)[C@@H](O)[C@]2(C)[C@@H](c3ccc(=O)oc3)CC[C@]12O [PBG, pseudobufarenogin]"
metric = "half-life"
unit_spec = "h"
observed_result = 1.03

[[record]]
compound = "C[C@]12CC[C@H](O)C[C@H]1CC[C@@H]1[C@@H]2CC[C@]2(C)[C@@H](c3ccc(=O)oc3)CC[C@]12O [BF, bufalin]"
metric = "half-life"
unit_spec = "h"
observed_result = 1.2

[[record]]
compound = "C[C@]12CC[C@H](O)C[C@H]1CC[C@@H]1[C@@H]2[C@H](O)C[C@]2(C)[C@@H](c3ccc(=O)oc3)CC[C@]12O [GBL, gamabufotalin]"
metric = "half-life"
unit_spec = "h"
observed_result = 0.28


Consider the compound shown here: C[C@]12CC[C@H](O)C[C@H]1CC[C@@H]1[C@@H]2[C@H](O)C(=O)[C@]2(C)[C@@H](c3ccc(=O)oc3)CC[C@]12O [ABG, arenobufagin] What is its recorded half-life?
0.64

Try this compound next: C[C@]12CC[C@H](O)C[C@H]1CC[C@@H]1[C@@H]2CC[C@]2(C)[C@@H](c3ccc(=O)oc3)[C@@H](O)[C@H]3O[C@]132 [DCG, desacetylcinobufagin]
4.76

Try the compound C[C@]12CC[C@H](O)C[C@@]1(O)CC[C@@H]1[C@@H]2CC[C@]2(C)[C@@H](c3ccc(=O)oc3)[C@@H](O)[C@H]3O[C@]132 [DCT, desacetylcinobufotalin]
1.97

Proceed to C[C@]12CC[C@H]3[C@@H](CC[C@]4(O)C[C@@H](O)CC[C@]34C=O)[C@@]1(O)CC[C@@H]2c1ccc(=O)oc1 [HBG, hellebrigenin]
1.34
